The reader will find reported % inhibition of kinase activity at 1 µM; PKB-kinase (spa) Assay 2 values listed item by item below.
target: protein kinase B (UniProt P31749); experiment: cell-based or functional assay
Sequence (P31749 whole entry): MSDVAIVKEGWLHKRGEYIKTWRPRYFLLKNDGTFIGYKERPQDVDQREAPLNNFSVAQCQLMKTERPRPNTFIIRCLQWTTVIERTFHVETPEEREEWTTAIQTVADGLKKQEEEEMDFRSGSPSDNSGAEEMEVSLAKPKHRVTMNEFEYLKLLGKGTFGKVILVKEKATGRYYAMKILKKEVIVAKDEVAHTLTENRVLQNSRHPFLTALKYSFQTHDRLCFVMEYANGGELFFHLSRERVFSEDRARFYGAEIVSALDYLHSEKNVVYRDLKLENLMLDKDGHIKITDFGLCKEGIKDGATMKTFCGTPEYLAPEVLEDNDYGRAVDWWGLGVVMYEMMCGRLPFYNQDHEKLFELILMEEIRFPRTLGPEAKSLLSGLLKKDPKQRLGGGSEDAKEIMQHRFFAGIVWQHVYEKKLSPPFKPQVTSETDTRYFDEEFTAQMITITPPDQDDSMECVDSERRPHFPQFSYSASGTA
Where no end group is shown, it is not given here. Side-chain parts run from the residue outwards. [ ]: non-standard residue; d: D form. The star is where a group is joined. X1 = 5‑aminoethylsulfonamide isoquinoline, O=S(=O)(NCCN*)c1cccc2cnccc12; hLeu = CC(C)CC[C@H](N)C(=O)O; Nle = CCCC[C@H](N)C(=O)O; Orn = NCCC[C@H](N)C(=O)O; Dab = NCC[C@H](N)C(=O)O; Nva = CCC[C@H](N)C(=O)O; βAla = NCCC(=O)O
recordedMetric: % inhibition of kinase activity at 1 µM; PKB-kinase (spa) Assay 2

> print(dat)
                                     binder  reading
1  RPR[Orn]E([Gly-X1])[Dab][hLeu] (not fully specified (C-terminus)) [TY-60020-42]      86%
2  RPR[Nle]E([βAla-X1])[Nva]F (not fully specified (C-terminus)) [TY-60020-95]      90%
3  RPR[Nle]E([βAla-X1])AF (not fully specified (C-terminus)) [TY-60020-93]      58%
